Source listed as paper PMC9845116.

Tested on: HepG2
Assay: MTT cell viability assay, HepG2
Format: cell-based
Conditions: Homo sapiens, HepG2, 48 h, read-out: IC50(μM) HepG2
Readout label: IC50 (µM)

>>> print(df.to_string())
                                   compound  readout_label  units_of_measure  experimental_result
0  O=c1[nH]cc(F)c(=O)[nH]1 [5-Fu, 5-fluorouracil, reference compound]           IC50                µM                 45.4
1  COc1cc(OC)c(C(=O)/C=C/c2cnc3ccccc3c2)c(OC)c1           IC50                µM                 8.92
2    COc1cc(OC)c(C(=O)/C=C/c2ccccc2)c(OC)c1           IC50                µM                 47.1
3     COc1cc(OC)c(C(=O)/C=C/c2ccsc2)c(OC)c1           IC50                µM                 19.9
4  COc1cc(OC)c(C(=O)/C=C/c2coc(Br)c2)c(OC)c1           IC50                µM                 20.4
5  COc1cc(OC)c(C(=O)/C=C/C2=CSC(Br)=CC2)c(OC)c1           IC50                µM                 19.5
6  COc1cc(OC)c(C(=O)/C=C/c2cc3cc(F)ccc3[nH]c2=O)c(OC)c1           IC50                µM                 15.1
7  COc1cc(OC)c(C(=O)/C=C/c2ccc(Br)cc2)c(OC)c1           IC50                µM                   13

a. COc1cc(OC)c(C(=O)/C=C/c2ccc(-c3ccc(F)cc3)cc2)c(OC)c1
b. COc1cc(OC)c(C(=O)/C=C/c2cc3ccccc3[nH]c2=O)c(OC)c1
c. COc1cc(OC)c(C(=O)/C=C/c2ccccn2)c(OC)c1
Query: Descending sort on IC50 required. Response format: the labels, sorted as the prompt asks.
Response: a, b, c
